Biological target: UniProtKB P53778
Sequence (P53778 whole entry, looked up): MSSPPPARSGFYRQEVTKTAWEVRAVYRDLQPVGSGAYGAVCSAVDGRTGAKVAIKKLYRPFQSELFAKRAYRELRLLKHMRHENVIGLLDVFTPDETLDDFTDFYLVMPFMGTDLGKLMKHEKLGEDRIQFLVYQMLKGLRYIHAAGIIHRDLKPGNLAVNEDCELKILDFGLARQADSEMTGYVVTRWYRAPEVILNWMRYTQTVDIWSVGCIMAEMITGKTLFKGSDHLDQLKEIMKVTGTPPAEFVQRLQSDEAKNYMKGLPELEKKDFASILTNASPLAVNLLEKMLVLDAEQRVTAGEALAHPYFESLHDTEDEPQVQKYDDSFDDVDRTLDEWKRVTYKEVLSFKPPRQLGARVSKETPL
Test: Caliper, Mobility shift assay off-chip
Settings: compound 0.2 µM
Quantity Kind: inhibition (%)

Example cases with answers are listed next.
Item Smiles | Reading Unit | inhibition
Cc1ccc(Nc2nccc(N(C)c3ccc4c(C)n(C)nc4c3)n2)cc1S(N)(=O)=O | % | -2.7
CNC(=O)c1cc(Oc2ccc(NC(=O)Nc3ccc(Cl)c(C(F)(F)F)c3)cc2)ccn1 | % | -0.3

[1] COc1cc2c(Oc3ccc4[nH]c(C)cc4c3F)ncnc2cc1OCCCN1CCCC1
[2] CCN(CC)CCNC(=O)c1c(C)[nH]c(/C=C2\C(=O)Nc3ccc(F)cc32)c1C
Task: inhibition comparison. Which is larger, 1 or 2 ? Your choice should be expressed through its label.
Result: 1

====

Target: LATS2 (human) (UniProt Q9NRM7)
Sequence (Q9NRM7 whole entry, looked up): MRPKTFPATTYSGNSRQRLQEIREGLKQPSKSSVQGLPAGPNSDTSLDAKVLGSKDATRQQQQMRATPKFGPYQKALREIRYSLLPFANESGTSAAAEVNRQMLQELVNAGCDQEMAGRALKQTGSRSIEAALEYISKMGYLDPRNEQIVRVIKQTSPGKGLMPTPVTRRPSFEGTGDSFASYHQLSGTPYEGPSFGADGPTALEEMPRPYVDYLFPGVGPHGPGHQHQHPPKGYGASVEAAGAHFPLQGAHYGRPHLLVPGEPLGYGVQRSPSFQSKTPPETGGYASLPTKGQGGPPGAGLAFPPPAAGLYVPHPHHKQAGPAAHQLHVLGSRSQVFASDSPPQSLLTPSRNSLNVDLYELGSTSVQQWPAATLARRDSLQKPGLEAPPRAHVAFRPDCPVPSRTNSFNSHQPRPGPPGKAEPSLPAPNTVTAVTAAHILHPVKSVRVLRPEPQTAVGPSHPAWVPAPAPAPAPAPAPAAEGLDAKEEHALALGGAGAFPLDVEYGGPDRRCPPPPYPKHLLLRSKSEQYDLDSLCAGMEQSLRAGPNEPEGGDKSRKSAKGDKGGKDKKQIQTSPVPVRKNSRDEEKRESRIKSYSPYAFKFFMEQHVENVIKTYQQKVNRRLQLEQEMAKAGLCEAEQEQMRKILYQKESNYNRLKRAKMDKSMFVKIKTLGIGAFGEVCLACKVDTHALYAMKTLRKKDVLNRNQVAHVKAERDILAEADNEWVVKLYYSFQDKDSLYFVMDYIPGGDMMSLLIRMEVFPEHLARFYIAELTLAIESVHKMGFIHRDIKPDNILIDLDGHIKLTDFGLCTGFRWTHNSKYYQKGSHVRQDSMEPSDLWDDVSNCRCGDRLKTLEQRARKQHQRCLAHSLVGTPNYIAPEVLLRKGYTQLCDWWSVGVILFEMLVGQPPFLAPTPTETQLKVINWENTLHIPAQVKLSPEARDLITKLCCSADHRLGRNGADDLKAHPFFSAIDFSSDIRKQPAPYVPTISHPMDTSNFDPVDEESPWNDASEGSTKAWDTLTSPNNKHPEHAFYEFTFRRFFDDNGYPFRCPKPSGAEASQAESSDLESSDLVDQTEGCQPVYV
Assay: Caliper, Mobility shift assay off-chip
Settings: compound 0.02 µM
Quantity Kind: inhibition (%)

[1] COc1cc2c(Oc3ccc4[nH]c(C)cc4c3F)ncnc2cc1OCCCN1CCCC1
[2] CNC(=O)c1ccccc1Sc1ccc2c(/C=C/c3ccccn3)n[nH]c2c1
[3] CNC(=O)c1cc(Oc2ccc(NC(=O)Nc3ccc(Cl)c(C(F)(F)F)c3)cc2)ccn1
Task: Ascending by inhibition, please. Please, when replying, give the labels in the order that was requested.
Result: 1, 3, 2
(1: -7.6%, 3: -4.4%, 2: -2.3%)

====

Target: JAK3 JH1 JH2 (human)
Assay: Caliper, Mobility shift assay off-chip
Details: compound 0.2 µM
Quantity Kind: inhibition (%)

Item Smiles | Value Observed
CNC(=O)c1cc(Oc2ccc(NC(=O)Nc3ccc(Cl)c(C(F)(F)F)c3)cc2)ccn1 | 8.1
COc1cc2c(Oc3ccc4[nH]c(C)cc4c3F)ncnc2cc1OCCCN1CCCC1 | 4

[P] CCN(CC)CCNC(=O)c1c(C)[nH]c(/C=C2\C(=O)Nc3ccc(F)cc32)c1C
[Q] Cc1ccc(Nc2nccc(N(C)c3ccc4c(C)n(C)nc4c3)n2)cc1S(N)(=O)=O
Task: Which of these two has the smaller recorded inhibition: P or Q ? Response format: the label of the selected entry.
Result: Q

====

Target: PIM3 (human)
Experiment: Caliper, Mobility shift assay off-chip
Settings: compound 0.2 µM
Quantity Kind: inhibition (%)

[A] COc1cc2c(Oc3ccc4[nH]c(C)cc4c3F)ncnc2cc1OCCCN1CCCC1
[B] Cc1ccc(Nc2nccc(N(C)c3ccc4c(C)n(C)nc4c3)n2)cc1S(N)(=O)=O
Task: Sorting by inhibition in descending order, would A or B appear first? Write down the label attached to your selection.
Result: B

[P] CNC(=O)c1cc(Oc2ccc(NC(=O)Nc3ccc(Cl)c(C(F)(F)F)c3)cc2)ccn1
[Q] CCN(CC)CCNC(=O)c1c(C)[nH]c(/C=C2\C(=O)Nc3ccc(F)cc32)c1C
Task: Of P and Q , whose reported inhibition is numerically smaller? // return label of chosen record
Result: P

====

Target: MKNK1 (human)
Experiment: Caliper, Mobility shift assay off-chip
Settings: compound 0.2 µM
Quantity Kind: inhibition (%)

Answered cases to consult:
Item Smiles | inhibition [%]
Cc1ccc(Nc2nccc(N(C)c3ccc4c(C)n(C)nc4c3)n2)cc1S(N)(=O)=O | 3.1
CNC(=O)c1cc(Oc2ccc(NC(=O)Nc3ccc(Cl)c(C(F)(F)F)c3)cc2)ccn1 | 6.4

[I] CCN(CC)CCNC(=O)c1c(C)[nH]c(/C=C2\C(=O)Nc3ccc(F)cc32)c1C
[II] COc1cc2c(Oc3ccc4[nH]c(C)cc4c3F)ncnc2cc1OCCCN1CCCC1
Task: Between I and II , whose measured inhibition reads higher? Indicate your choice by writing its label.
Result: I

Taken from the kinase profiling compilation of Christmann-Franck et al. (2016).
